# target-system: T1, recombinant human full-length TDP-43 (TAR DNA-binding protein 43), soluble (human, UniProt Q13148 1-414)
# T1 construct: Used on Luminex beads, coated on ELISA plates, and immobilized or injected in SPR; also called FL TDP-43; TDP-43 protein
# T1 sequence (Q13148 whole entry): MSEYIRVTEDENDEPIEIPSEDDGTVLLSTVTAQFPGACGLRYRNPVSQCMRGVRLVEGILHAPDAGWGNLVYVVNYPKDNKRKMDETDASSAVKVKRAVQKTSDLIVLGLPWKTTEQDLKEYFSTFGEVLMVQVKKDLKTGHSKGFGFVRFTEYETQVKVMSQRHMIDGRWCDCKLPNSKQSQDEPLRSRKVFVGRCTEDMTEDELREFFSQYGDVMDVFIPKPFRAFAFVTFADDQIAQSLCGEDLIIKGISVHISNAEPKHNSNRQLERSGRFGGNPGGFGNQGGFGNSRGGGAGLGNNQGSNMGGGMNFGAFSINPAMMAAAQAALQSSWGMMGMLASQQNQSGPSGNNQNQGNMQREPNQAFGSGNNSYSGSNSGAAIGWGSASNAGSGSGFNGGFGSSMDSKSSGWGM
# assay-procedure: SPR 8K, immobilized soluble TDP-43; IgG1
measurement-name: koff
The reply must contain the numeric value and, after it, the unit.

Below, each entry is followed by its recorded koff result.
{"binder": "hACI-7069-633B12-Ab1_H19L18 (IgG1 isotype) (antibody, V domains shown, Human IgG1 / kappa; also called hACI-7069-633B12-Ab1_H19L18 (hIgG1 isotype)) VH: QVQLVQSGAEVKKPGASVKVSCKTSGFTFTEYSMHWVRQAPGQRLEWIGGINPGNAGTSYNQKFKGRVTITVDTSASTAYMELSSLRSEDTAVYYCARESWGQGTTVTVSS VL: DVVMTQSPLSLPVTLGQPASISCKSSQSLLHSDAKTYLNWLQQRPGQSPRRLIYLVSKLDSRVPDRFSGSGSGTDFTLKISRVEAEDLGVYYCFQGTHFPHTFGQGTKLEIK", "measurement-name": "koff", "reported": "9.6e-06 s⁻¹"}
{"binder": "hACI-7069-633B12-Ab1_H23L20 (IgG1) (antibody, V domains shown, Human IgG1 / kappa) VH: QVQLVQSGAEVKKPGASVKVSCKTSGFTFTEYSMHWVRQAPGQRLEWIGGINPGNGGTSYNQKFKGRVTITVDTSASTAYMELSSLRSEDTAVYYCARESWGQGTTVTVSS VL: DVVMTQSPLSLPVTLGQPASISCKSSQSLLHSDGKTYLNWLQQRPGQSPRRLIYLVSKLDSRVPDRFSGSGSGTDFTLKISRVEAEDLGVYYCWQGTHFPHTFGQGTKLEIK", "measurement-name": "koff", "reported": "6.4e-06 s⁻¹"}
{"binder": "hACI-7069-633B12-Ab1_H20L19 (IgG1) (antibody, V domains shown, Human IgG1 / kappa) VH: EVQLVQSGAEVKKPGASVKVSCKTSGFTFTEYSMHWVRQAPGQRLEWIGGINPGNAGTSYNQKFKGRVTITVDTSASTAYMELSSLRSEDTAVYYCARESWGQGTTVTVSS VL: DVVMTQSPLSLPVTLGQPASISCKSSQSLLHSDAKTYLNWLQQRPGQSPKRLIYLVSKLDSRVPDRFSGSGSGTDFTLKISRVEAEDLGVYYCFQGTHFPHTFGQGTKLEIK", "measurement-name": "koff", "reported": "1.8e-05 s⁻¹"}

Briefly, koff measured for hACI-7069-633B12-Ab1_H15L18 (IgG1) (antibody, V domains shown, Human IgG1 / kappa) VH: QVQLVQSGAEVKKPGASVKVSCKASGFTFTEYSMHWVRQAPGQRLEWMGGINPGNAGTSYNQKFKGRVTITVDTSASTAYMELSSLRSEDTAVYYCARESWGQGTTVTVSS VL: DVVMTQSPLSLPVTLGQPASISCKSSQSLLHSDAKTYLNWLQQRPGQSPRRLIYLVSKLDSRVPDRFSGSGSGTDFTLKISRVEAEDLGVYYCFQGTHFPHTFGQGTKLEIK : 8.3e-06 s⁻¹

Briefly, koff measured for hACI-7069-633B12-Ab1_H16L14 (IgG1) (antibody, V domains shown, Human IgG1 / kappa) VH: EVQLVQSGAEVKKPGASVKVSCKASGFTFTEYSMHWVRQAPGQRLEWMGGINPGNAGTSYNQKFKGRVTITVDTSASTAYMELSSLRSEDTAVYYCARESWGQGTTVTVSS VL: DVVMTQSPLSLPVTLGQPASISCKSSQSLLHSDAKTYLNWLQQRPGQSPRRLIYLVSKLDSGVPDRFSGSGSGTDFTLKISRVEAEDLGVYYCFQGTHFPHTFGQGTKLEIK : 2.2e-05 s⁻¹
